- ASSAY TARGET: full length N-terminally FLAG-tagged PARP1 (Homo sapiens, UniProt P09874)
- Sequence (P09874 whole entry): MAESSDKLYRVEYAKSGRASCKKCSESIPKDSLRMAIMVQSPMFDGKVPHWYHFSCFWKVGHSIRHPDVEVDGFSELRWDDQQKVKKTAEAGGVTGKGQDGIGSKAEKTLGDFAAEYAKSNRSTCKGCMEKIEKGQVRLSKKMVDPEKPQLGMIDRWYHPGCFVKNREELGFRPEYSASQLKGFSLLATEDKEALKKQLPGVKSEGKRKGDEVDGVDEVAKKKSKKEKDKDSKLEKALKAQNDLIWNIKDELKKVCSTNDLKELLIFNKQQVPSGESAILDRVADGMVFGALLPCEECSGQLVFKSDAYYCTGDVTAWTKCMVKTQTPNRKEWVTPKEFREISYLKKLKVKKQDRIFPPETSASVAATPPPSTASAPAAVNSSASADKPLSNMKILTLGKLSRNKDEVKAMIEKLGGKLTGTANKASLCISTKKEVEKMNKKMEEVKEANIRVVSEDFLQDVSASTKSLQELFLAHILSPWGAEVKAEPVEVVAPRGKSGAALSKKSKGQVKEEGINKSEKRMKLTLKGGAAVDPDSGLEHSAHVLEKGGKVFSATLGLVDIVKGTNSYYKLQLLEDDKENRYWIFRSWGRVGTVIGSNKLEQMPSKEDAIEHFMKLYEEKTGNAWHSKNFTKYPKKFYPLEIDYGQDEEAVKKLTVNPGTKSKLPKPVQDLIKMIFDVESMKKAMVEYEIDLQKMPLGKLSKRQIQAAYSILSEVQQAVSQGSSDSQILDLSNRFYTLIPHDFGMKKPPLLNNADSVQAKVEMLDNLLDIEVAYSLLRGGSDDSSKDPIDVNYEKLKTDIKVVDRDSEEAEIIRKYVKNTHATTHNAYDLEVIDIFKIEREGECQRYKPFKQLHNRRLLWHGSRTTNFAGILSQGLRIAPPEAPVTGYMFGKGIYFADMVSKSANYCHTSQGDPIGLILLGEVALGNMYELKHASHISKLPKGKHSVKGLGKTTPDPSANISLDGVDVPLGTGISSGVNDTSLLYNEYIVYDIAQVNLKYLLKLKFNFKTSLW
- TEST DESCRIPTION: PARP1 probe displacement HTRF assay
- TEST CONTEXT: read-out: PARP1 HTRF; binned Kd, PARP1 probe displacement HTRF
pKd: −log10 of the molar value.
MEASUREMENT NAME: pKd

Query: Quick one: pKd of CNC(=O)c1ccc(N2CCC(CN3CCC(c4nc5ccccc5c(=O)[nH]4)CC3)C2)cn1 (single isomer, unassigned) [Compound 50a] ?
Reply: 7.00 to 8.00

Query: Subsequent entry: CCc1nc(C(=O)NC)ccc1N1CCC(N2CCC(c3nc4ccccc4c(=O)[nH]3)C2)CC1 (single isomer, unassigned) [Compound 118a]
Reply: > 8.00

====

- ASSAY TARGET: full length N-terminally FLAG-tagged PARP1 (Homo sapiens)
- TEST DESCRIPTION: PARP1 probe displacement HTRF assay
- TEST CONTEXT: read-out: PARP1 HTRF; binned Kd, PARP1 probe displacement HTRF
The entries below come with measured Kd values attached.

Consider the following illustrative entries.
CNC(=O)c1ccc(N2CCC(N3CCC(c4nc5ccccc5c(=O)[nH]4)C3)CC2)c(F)n1 (racemic) [Compound 157rac] :: < 10 nM
CNC(=O)c1ccc(N2CCC(N3CCC(c4cc5ccc(F)cc5c(=O)[nH]4)C3)CC2)nn1 (single isomer, unassigned) [Compound 197a] :: < 10 nM
CNC(=O)c1ccc(N2CCC(N3CCCC(c4ncc(C(F)(F)F)c(=O)[nH]4)C3)CC2)cn1 (single isomer, unassigned) [Compound 73a] :: 100 to 1000 nM
CNC(=O)c1ccc(N2CCC(N3CCC(c4ccc(CC5CC5)c(=O)[nH]4)C3)CC2)cn1 (single isomer, unassigned) [Compound 213a] :: 10 to 100 nM

Query: Using the record for CNC(=O)c1ccc(N2CCC(N3CCC(c4cc5cccc(F)c5c(=O)[nH]4)C3)CC2)c(F)n1 (single isomer, unassigned) [Compound 184b] , report its Kd.
Reply: < 10 nM

Query: Entry CNC(=O)c1ccc(N2CCC(N3CCC(c4cc5c(F)cccc5c(=O)[nH]4)C3)CC2)cn1 (single isomer, unassigned) [Compound 172a] please
Reply: < 10 nM

====

- ASSAY TARGET: full length N-terminally FLAG-tagged PARP1 (Homo sapiens)
- TEST DESCRIPTION: PARP1 biochemical DELFIA assay (auto-PARylation)
- Design: recombinant full length human N-terminally FLAG-tagged PARP1
- TEST CONTEXT: binned IC50, PARP1 biochemical DELFIA assay
MEASUREMENT NAME: IC50

As a guide, the following entries are already answered.
CNC(=O)c1ccc(N2CCC(N3CCC(c4nc5ccc(C(F)(F)F)cc5c(=O)[nH]4)C3)CC2)cn1 (single isomer, unassigned) [Compound 161b] :: < 10 nM
CNC(=O)c1ccc(N2CCC(N3CCC(c4cc5ccccc5c(=O)[nH]4)C3)CC2)cn1 (single isomer, unassigned) [Compound 91a] :: < 10 nM

Then this compound:
Query: Under full length N-terminally FLAG-tagged PARP1 (Homo sapiens): IC50 value of CNC(=O)c1ccc(N2CCC(N3CCC(c4ccc(CC(F)(F)F)c(=O)[nH]4)C3)CC2)cn1 (single isomer, unassigned) [Compound 188a] ?
Reply: 100 to 1000 nM

====

- ASSAY TARGET: UniProt:Q9UGN5
- Sequence (Q9UGN5 whole entry): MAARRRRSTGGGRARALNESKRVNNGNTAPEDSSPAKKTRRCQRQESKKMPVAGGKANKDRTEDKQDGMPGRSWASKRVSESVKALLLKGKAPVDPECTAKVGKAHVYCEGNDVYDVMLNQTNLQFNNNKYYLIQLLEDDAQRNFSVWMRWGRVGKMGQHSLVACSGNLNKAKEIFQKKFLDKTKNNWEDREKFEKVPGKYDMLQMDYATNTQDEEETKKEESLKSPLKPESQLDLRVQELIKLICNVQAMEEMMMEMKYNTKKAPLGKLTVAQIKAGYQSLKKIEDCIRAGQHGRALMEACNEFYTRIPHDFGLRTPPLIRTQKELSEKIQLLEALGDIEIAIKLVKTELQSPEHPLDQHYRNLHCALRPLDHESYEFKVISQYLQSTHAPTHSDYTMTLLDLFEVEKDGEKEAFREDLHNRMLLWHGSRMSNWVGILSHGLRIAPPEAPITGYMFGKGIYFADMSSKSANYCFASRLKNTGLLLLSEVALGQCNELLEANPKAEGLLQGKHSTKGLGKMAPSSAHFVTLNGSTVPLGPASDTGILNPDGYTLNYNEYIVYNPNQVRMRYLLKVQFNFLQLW
- TEST DESCRIPTION: NanoBRET cellular target occupancy assay, PARP2
- TEST CONTEXT: HEK293 cells transiently transfected with PARP2-NanoLuc fusion; tracer 2 nM; 2 hours at 37° C.; Kd by Cheng-Prussoff
# Kd listing for each entry below

CCc1cc(Cl)c(C2CCN(C3CCN(c4ccc(C(=O)NC)nc4)CC3)C2)[nH]c1=O (racemic) :: 1000 to 10000 nM
CCc1ccc(C2CCN(C3CCN(c4ccc(C(=O)NC)nc4)CC3)C2)[nH]c1=O (single isomer, unassigned) [Compound 72b] :: 1000 to 10000 nM
CCc1ccc(C2CCN(C3CCN(c4ccc(C(=O)NCCF)nc4F)CC3)C2)[nH]c1=O (single isomer, unassigned) [Compound 322b] :: 100 to 1000 nM

Query: Name the reported Kd value associated with the molecule CNC(=O)c1ccc(N2CCC(N3CCC(c4cc5ccc(Cl)cc5c(=O)[nH]4)C3)CC2)cn1 (single isomer, unassigned) [Compound 129b]
Reply: 100 to 1000 nM

Query: Also need CNC(=O)c1ccc(N2CCC(N3CCC(c4cc5cccc(F)c5c(=O)[nH]4)C3)CC2)c(Cl)n1 (single isomer, unassigned) [Compound 183b] , thanks.
Reply: 1000 to 10000 nM

====

- ASSAY TARGET: full length N-terminally FLAG-tagged PARP1 (Homo sapiens, UniProt P09874)
- TEST DESCRIPTION: PARP1 probe displacement HTRF assay
- TEST CONTEXT: read-out: PARP1 HTRF; binned Kd, PARP1 probe displacement HTRF
Reported Kd by item:

O=c1[nH]c(C2CCN(C3CCN(c4ccc(Cl)cc4)CC3)C2)nc2ccccc12 (single isomer, unassigned) [Compound 43b] :: < 10 nM

Query: Kd lookup needed for CNC(=O)c1ccc(N2CCC(N3CCC(c4nc5ccc(C(F)(F)F)cc5c(=O)[nH]4)C3)CC2)cn1 (single isomer, unassigned) [Compound 161b] , thanks.
Reply: < 10 nM

Query: Another compound: O=c1[nH]c(CC2CCCN(C3CCC(F)(F)CC3)C2)nc2ccccc12 (single isomer, unassigned) [Compound 11b]
Reply: 100 to 1000 nM

Query: Queued: CNC(=O)c1ccc(N2CCC(N3CCC(c4cc5c(C(F)(F)F)cccc5c(=O)[nH]4)C3)CC2)cn1 (single isomer, unassigned) [Compound 167b]
Reply: < 10 nM

Query: Repeat for the following compound: O=c1[nH]c(C2CCN(C3CCN(c4ccc(-c5ncc[nH]5)cc4)CC3)C2)nc2ccccc12 (single isomer, unassigned) [Compound 76b]
Reply: 10 to 100 nM

Query: Continue with CNC(=O)c1ccc(N2CCC(N3CCC(c4nc5ccccc5c(=O)[nH]4)C3)CC2)c(C)n1 (single isomer, unassigned) [Compound 125b]
Reply: < 10 nM

====

A collection of compounds and their measured Kd
- ASSAY TARGET: full length N-terminally FLAG-tagged PARP1 (Homo sapiens)
- TEST DESCRIPTION: PARP1 probe displacement HTRF assay
- TEST CONTEXT: read-out: PARP1 HTRF; binned Kd, probe displacement HTRF

Query: Lab request: please report Kd under test system full length N-terminally FLAG-tagged PARP1 (Homo sapiens) for CCc1ccc(C2CCN(C3CCN(c4ccc(OC(F)F)nc4)CC3)C2)[nH]c1=O (single isomer, unassigned) [Compound 382a]
Reply: 0.1 to 1 µM

Query: Repeat with CNC(=O)c1cnc(N2CCC(N3CCC(c4cc5ccccc5c(=O)[nH]4)C3)CC2)s1 (racemic) [Compound 320rac]
Reply: 0.1 to 1 µM

Query: Another: N#Cc1ccc(N2CCC(N3CCC(c4cc5cccc(F)c5c(=O)[nH]4)C3)CC2)cn1 (single isomer, unassigned) [Compound 316b]
Reply: 0.01 to 0.1 µM

====

Attribute: pIC50
- ASSAY TARGET: full length N-terminally FLAG-tagged PARP1 (Homo sapiens, UniProt P09874)
- TEST DESCRIPTION: PARP1 biochemical DELFIA assay (auto-PARylation)
- Design: recombinant full length human N-terminally FLAG-tagged PARP1
- TEST CONTEXT: binned IC50, biochemical auto-PARylation assay
pIC50: −log10 of the molar value.

Field: example entries. Status: answers known.
CNC(=O)c1ccc(N2CCC(N3CCC(c4cc5cccc(F)c5c(=O)[nH]4)C3)CC2)c(C#N)c1 (single isomer, unassigned) [Compound 345a] :: > 8.00
CNC(=O)c1ccc(N2CCC(N3CC4(c5nc6c(c(=O)[nH]5)CCCC6)CC3C4)CC2)cn1 :: > 8.00
CS(=O)(=O)Nc1ccc(N2CCC(N3CCC(c4nc5ccccc5c(=O)[nH]4)C3)CC2)cn1 (single isomer, unassigned) [Compound 291b] :: 6.00 to 7.00
CNC(=O)c1ccc(N2CCC(N3CCC(c4cc5c(c(=O)[nH]4)CCCC5)C3)CC2)c(F)n1 (single isomer, unassigned) [Compound 337a] :: > 8.00
CNC(=O)c1ccc(N2CCC(N3CCC(F)(c4nc5ccccc5c(=O)[nH]4)C3)CC2)cn1 (single isomer, unassigned) [Compound 328a] :: 6.00 to 7.00
O=c1[nH]c(C2CCN(C3CCN(c4ccc(C5=NCCN5)cc4)CC3)C2)nc2ccccc12 (racemic) :: 7.00 to 8.00
N#Cc1nc(C(=O)NC2CC2)ccc1N1CCC(N2CC3(c4nc5ccc(F)cc5c(=O)[nH]4)CC2C3)CC1 :: > 8.00
CNC(=O)c1ccc(N2CCC(N3CC4(c5nc6ccncc6c(=O)[nH]5)CC3C4)CC2)c(F)n1 :: > 8.00

Query: I have this molecule here, CCc1ccc(C2CCN(C3CCN(c4cnc(C(=O)NC5CC5)c(F)c4)CC3)C2)[nH]c1=O (single isomer, unassigned) [Compound 408b] , and I need its recorded pIC50.
Reply: 7.00 to 8.00

Query: Queued: N#Cc1ccc(N2CCC(N3CC4(c5nc6ccc(F)cc6c(=O)[nH]5)CC3C4)CC2)c(Cl)c1
Reply: > 8.00

Query: Field entry: CS(=O)(=O)Nc1ccc(N2CCC(N3CCC(c4nc5ccccc5c(=O)[nH]4)C3)CC2)cc1 (single isomer, unassigned) [Compound 250b]
Reply: 7.00 to 8.00

Query: Cool, now O=c1[nH]c(C2CCN(C3CCN(c4nccs4)CC3)C2)cc2ccccc12 (racemic)
Reply: 7.00 to 8.00
